test: soluble on expression in E. coli; label from the status in PepcDB or PDB records

{"sequenceChain": "MPMLTRILLLLCVALNAPLASAKETLHIYAASSMTNAVNALVADYSQQHDVKLVTVYGGSSSLARQIEAGAPADLFISANEEWANYLVEKGLVKPNKVVTLAANSLVLIRPTAQPVASFELQDAAAWQTALADSRLAVAQVDAVPAGMYAKQALQHAGVWPELESRLAQTNNVRLALALVERGESPLGIVYKTDALLSDKVTIVTAFSAQSHQPIRYPLAQLNDKAASAEWVAYLRSDAAQQILQRFGFESVSE", "soluble on expression in E. coli": "not soluble"}
{"sequenceChain": "MDVTQLKMLRNAKVVSEIKKGFSIDKKYQVDETYLVRVFPKELLQTRKQEFEIIQALGSQTPFVPRAYDFGCTGGEGYMIIGYVRGEDAENGMFRLSHSEQFKAGFSAGEILREVHKIPLDIPKMNWLDFQTAKFKRKVEELKELEITASFLTETEQFVYENIARLKNRPVCLQHGDFHPANIILKNKKFAGLIDFNRLEFGDPLFDLAKIGFFTTEVSIPFARGNILGYIDKEEVTDFWNLYALYTAMHITSAVNWAAKNESRNFNKLMNYAAKTAASHDNFQKLMPDWMNKEEFK", "soluble on expression in E. coli": "not soluble"}
{"sequenceChain": "MGSDKIHHHHHHMIKAMYSGVSGMKANQTKLDVIGNNVANAGTTSFKKSSARITDSFYQTVLYASAPTAALGGTNLGQVGVGSKISSINKDMVQGNVQPTNRPSDLMIDGDGYLPVVRQGTVMYTRDGSFNLDTGFKAADGALKNIKGGRLVNGDGYMLQGMIYDGEYKADTGEFVKKGDAKGKEPIVIPLQSISPKDGTVQNVLEYNISKDGTVEFLLSDGQRTQFVYDIPDGAKVGDTPAGIDKLKGTIQKVQIYAFQNPAGLDAAGGNLFKPSANSGDPQIAGATGTIIQGAIEASNVDIAEEFTEMIIASRSFQANSKIISTSDEILQEIINLKR", "soluble on expression in E. coli": "not soluble"}
